Entries and their shrunken log2 fold change values follow.
- System: Escherichia coli TOP10;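 also: peptides expressed intracellularly from a pBAD plasmid library in pooled LB shake-flask culture, induced with 0.3% L-arabinose, DNA abundance read by NGS, three biological replicates, DESeq2 with apeglm shrinkage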
- run_description: shrunken log2 fold change of peptide-encoding DNA abundance (4.5 h post-induction vs induction); higher = less antimicrobial activity (less host growth inhibition)
- condition_summary: time post-induction: 4.5 h; library: site-saturation at positions 5, 18, 19, 20

# biosequence, study_system, shrunken log2 fold change
records = [
    ("RRIRSRPPRLPRPRPRPIAPPRP", "Escherichia coli TOP10", -0.0336),
    ("RRIRFRPPRLPRPRPRPMLPPRP", "Escherichia coli TOP10", -0.184),
    ("RRIRPRPPRLPRPRPRPSSDPRP", "Escherichia coli TOP10", -0.317),
    ("RRIRRRPPRLPRPRPRPNHAPRP", "Escherichia coli TOP10", 0.345),
    ("RRIRWRPPRLPRPRPRPSLHPRP", "Escherichia coli TOP10", -0.044),
    ("RRIRSRPPRLPRPRPRPSQYPRP", "Escherichia coli TOP10", -0.466),
    ("RRIRCRPPRLPRPRPRPRARPRP", "Escherichia coli TOP10", 0.708),
    ("RRIRYRPPRLPRPRPRPDWFPRP", "Escherichia coli TOP10", -0.987),
    ("RRIRCRPPRLPRPRPRPCISPRP", "Escherichia coli TOP10", -0.582),
    ("RRIRGRPPRLPRPRPRPKISPRP", "Escherichia coli TOP10", 0.477),
    ("RRIRYRPPRLPRPRPRPNHPPRP", "Escherichia coli TOP10", -0.125),
    ("RRIRIRPPRLPRPRPRPSTDPRP", "Escherichia coli TOP10", -0.247),
    ("RRIRWRPPRLPRPRPRPGRNPRP", "Escherichia coli TOP10", -0.000528),
    ("RRIRKRPPRLPRPRPRPWGWPRP", "Escherichia coli TOP10", 0.691),
    ("RRIRLRPPRLPRPRPRPKQKPRP", "Escherichia coli TOP10", 0.0979),
    ("RRIRCRPPRLPRPRPRPRAMPRP", "Escherichia coli TOP10", 0.914),
    ("RRIRDRPPRLPRPRPRPRCWPRP", "Escherichia coli TOP10", 0.923),
    ("RRIRQRPPRLPRPRPRPTWEPRP", "Escherichia coli TOP10", 0.0645),
    ("RRIRCRPPRLPRPRPRPDVIPRP", "Escherichia coli TOP10", -0.405),
    ("RRIRLRPPRLPRPRPRPFNRPRP", "Escherichia coli TOP10", -0.00257),
    ("RRIRIRPPRLPRPRPRPEDTPRP", "Escherichia coli TOP10", 0.0265),
    ("RRIRCRPPRLPRPRPRPNQDPRP", "Escherichia coli TOP10", -0.348),
    ("RRIRRRPPRLPRPRPRPISCPRP", "Escherichia coli TOP10", 0.00341),
    ("RRIRWRPPRLPRPRPRPRFQPRP", "Escherichia coli TOP10", 0.199),
    ("RRIRDRPPRLPRPRPRPYQVPRP", "Escherichia coli TOP10", -0.183),
    ("RRIRIRPPRLPRPRPRPVGQPRP", "Escherichia coli TOP10", -0.195),
    ("RRIRERPPRLPRPRPRPIITPRP", "Escherichia coli TOP10", -0.867),
    ("RRIRVRPPRLPRPRPRPPTTPRP", "Escherichia coli TOP10", 0.47),
    ("RRIRDRPPRLPRPRPRPRWGPRP", "Escherichia coli TOP10", 0.471),
    ("RRIRLRPPRLPRPRPRPFDLPRP", "Escherichia coli TOP10", -0.0989),
    ("RRIRARPPRLPRPRPRPPSVPRP", "Escherichia coli TOP10", 0.479),
    ("RRIRRRPPRLPRPRPRPEEGPRP", "Escherichia coli TOP10", 0.00715),
]
